# PROTOCOL SUMMARY: Ph-1 placebo-controlled, randomized, single ascending dose study: pharmacokinetics
# Format: in vivo
# MEASUREMENT SETUP: both sexes, human, in vivo, oral; humans, single dose 200 mg to 1600 mg; range of means; read-out: mean t1/2
# Method: Ebselen has excellent oral availability (Fisher et al., 1988). Brain level was about 20% of the plasma level (Imai, et al., 2001, Ullrich, et al., 1996). […] A Ph-1 study was conducted in 32 humans in a placebo-controlled, randomized, single ascending dose design. Ebselen ranged from 200 mg to 1600 mg in the formulation. (1) Pharmacokinetics: The PK parameters of ebselen and its three metabolites were published (Lynch, et al., 2009). […] The tabulated side effects were published in Lynch, et al., 2009.
OBSERVABLE: half-life

Q. State its half-life: O=c1c2ccccc2[se]n1-c1ccccc1 [Ebselen, 2-Phenyl-1,2-benzisoselenazol-3(2H)-one]
A. 6.4 to 16.7 h
